Here, each record is paired with measured FACS Cell Binding (Fold Above Background) data.
Biological target: T1, HEK293/hPRLR (Homo sapiens, UniProt P16471)
T1 construct: HA; expressed in transfected cells; host or cells: HEK293
T1 sequence (P16471 25-622): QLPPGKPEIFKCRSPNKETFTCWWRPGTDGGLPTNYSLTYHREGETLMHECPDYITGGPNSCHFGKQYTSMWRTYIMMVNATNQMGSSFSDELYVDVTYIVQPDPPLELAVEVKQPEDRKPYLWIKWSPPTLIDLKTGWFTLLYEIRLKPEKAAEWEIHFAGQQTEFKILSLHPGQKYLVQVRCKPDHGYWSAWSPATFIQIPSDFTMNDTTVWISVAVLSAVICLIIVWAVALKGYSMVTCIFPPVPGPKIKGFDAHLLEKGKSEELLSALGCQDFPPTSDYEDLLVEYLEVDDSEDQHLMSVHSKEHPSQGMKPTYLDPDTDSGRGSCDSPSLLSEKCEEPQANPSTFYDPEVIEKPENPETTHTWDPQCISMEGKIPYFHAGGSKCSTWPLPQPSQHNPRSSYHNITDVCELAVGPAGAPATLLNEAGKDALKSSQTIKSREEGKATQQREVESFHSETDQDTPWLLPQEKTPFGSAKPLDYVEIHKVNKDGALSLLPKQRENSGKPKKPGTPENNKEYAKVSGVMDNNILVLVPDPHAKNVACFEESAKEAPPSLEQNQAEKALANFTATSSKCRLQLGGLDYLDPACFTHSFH
Assay: FACS cell surface binding

molecule="H1H6792P: anti-PRLR antibody, human IgG1 Fc; HCVR/LCVR SEQ ID NOs 130/138 (antibody, V domains shown, human IgG1 Fc) VH: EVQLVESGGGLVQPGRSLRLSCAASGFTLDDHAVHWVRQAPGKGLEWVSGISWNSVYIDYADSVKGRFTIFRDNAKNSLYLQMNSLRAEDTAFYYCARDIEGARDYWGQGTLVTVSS VL: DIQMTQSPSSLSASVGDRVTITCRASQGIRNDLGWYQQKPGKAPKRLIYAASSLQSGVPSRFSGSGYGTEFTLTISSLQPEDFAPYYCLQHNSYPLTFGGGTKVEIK" observed="37 Fold Above Background"

Which value of FACS Cell Binding (Fold Above Background) has been reported for H1H6959N2: human IgG1 Fc form of H2M6959N2; anti-PRLR; HCVR/LCVR SEQ ID NOs 306/314 (antibody, V domains shown, human IgG1 Fc) VH: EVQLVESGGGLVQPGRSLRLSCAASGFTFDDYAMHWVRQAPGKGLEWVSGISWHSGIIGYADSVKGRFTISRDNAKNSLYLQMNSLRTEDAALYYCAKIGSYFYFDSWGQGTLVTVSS VL: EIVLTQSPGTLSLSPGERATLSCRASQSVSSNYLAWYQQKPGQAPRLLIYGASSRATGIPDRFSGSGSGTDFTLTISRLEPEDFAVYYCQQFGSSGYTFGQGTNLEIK in the records?
6 Fold Above Background

Which value of FACS Cell Binding (Fold Above Background) has been reported for H1H6975N: human IgG1 Fc form of H2M6975N; anti-PRLR; HCVR/LCVR SEQ ID NOs 370/378 (antibody, V domains shown, human IgG1 Fc) VH: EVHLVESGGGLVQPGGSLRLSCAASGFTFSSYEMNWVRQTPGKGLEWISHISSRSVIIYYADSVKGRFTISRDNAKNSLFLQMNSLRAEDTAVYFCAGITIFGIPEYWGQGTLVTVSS VL: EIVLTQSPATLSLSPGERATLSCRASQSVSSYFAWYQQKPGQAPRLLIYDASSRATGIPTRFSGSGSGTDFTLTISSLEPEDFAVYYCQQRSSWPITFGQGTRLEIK in the records?
38 Fold Above Background

Which value of FACS Cell Binding (Fold Above Background) has been reported for H1H6785P: anti-PRLR antibody, human IgG1 Fc; HCVR/LCVR SEQ ID NOs 98/106 (antibody, V domains shown, human IgG1 Fc) VH: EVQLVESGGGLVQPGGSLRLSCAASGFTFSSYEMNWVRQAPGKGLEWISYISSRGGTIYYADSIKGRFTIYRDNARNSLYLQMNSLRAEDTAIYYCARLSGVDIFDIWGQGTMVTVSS VL: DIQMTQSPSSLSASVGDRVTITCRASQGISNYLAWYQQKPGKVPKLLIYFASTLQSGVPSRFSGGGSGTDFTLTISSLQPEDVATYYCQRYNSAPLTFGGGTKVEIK in the records?
37 Fold Above Background
